Assay System: hCA I (Homo sapiens, UniProt P00915)
Construct: made in house
Sequence (P00915 whole entry): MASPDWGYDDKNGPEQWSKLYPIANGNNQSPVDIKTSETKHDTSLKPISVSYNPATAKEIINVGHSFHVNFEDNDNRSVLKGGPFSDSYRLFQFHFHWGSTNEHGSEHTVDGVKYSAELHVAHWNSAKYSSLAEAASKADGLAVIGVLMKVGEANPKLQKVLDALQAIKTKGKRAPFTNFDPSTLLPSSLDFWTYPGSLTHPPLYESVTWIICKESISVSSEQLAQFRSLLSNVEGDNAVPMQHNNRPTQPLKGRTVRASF
Protocol Summary: stopped-flow CO2 hydrase assay, hCA I
Format: biochemical
Condition Info: stopped-flow, incubation time of 6 h, mean of three assays; read-out: KI CA I
Quantity: Ki

| Smiles Data | Ki |
| --- | --- |
| Cc1nc(-c2cc3ccccc3oc2=O)ccc1C(=O)/C=C/c1ccc(N(C)C)cc1 | > 100 µM |
| COc1ccc(/C=C/C(=O)c2ccc(-c3cc4ccccc4oc3=O)nc2C)cc1 | > 100 µM |
| Cc1nc(-c2cc3ccccc3oc2=O)ccc1C(=O)/C=C/c1ccc(F)cc1 | > 100 µM |
| Cc1nc(-c2cc3ccccc3oc2=O)ccc1C(=O)/C=C/c1ccc(N2CCOCC2)cc1 | > 100 µM |
| Cc1nc(-c2cc3ccccc3oc2=O)ccc1C(=O)/C=C/c1ccc(Cl)cc1 | > 100 µM |

Required: Ki, one value per molecule below.
1. Cc1nn(-c2ccccc2)cc1/C=C/C(=O)c1ccc(-c2cc3ccccc3oc2=O)nc1C
2. CC(=O)c1ccc(-c2cc3ccccc3oc2=O)nc1C
3. Cc1nc(-c2cc3ccccc3oc2=O)ccc1C(=O)/C=C/c1ccc2c(c1)OCO2
4. Cc1ccc(/C=C/C(=O)c2ccc(-c3cc4ccccc4oc3=O)nc2C)cc1
5. Cc1nc(-c2cc3ccccc3oc2=O)ccc1C(=O)/C=C/c1ccccn1

1: > 100 µM; 2: > 100 µM; 3: > 100 µM; 4: > 100 µM; 5: > 100 µM

Any idea what Ki was measured for "Cc1nc(-c2cc3ccccc3oc2=O)ccc1C(=O)/C=C/c1ccc([N+](=O)[O-])cc1" ?
> 100 µM

----------
Assay System: hCA I (Homo sapiens, UniProt P00915)
Construct: made in house
Protocol Summary: stopped-flow CO2 hydrase assay, hCA I
Type: biochemical
Quantity: Ki

Ki lookup needed for "Cc1nc(-c2cc3ccccc3oc2=O)ccc1C(=O)/C=C/c1cccs1" , thanks.
> 100 µM

----------
Record form. Attribute: Ki. Fill in for each entry.
Assay System: hCA IX (Homo sapiens, UniProt Q16790)
Construct: made in house
Protocol Summary: stopped-flow CO2 hydrase assay, hCA IX
Format: biochemical
Condition Info: stopped-flow, incubation time of 6 h, mean of three assays; read-out: KI CA IX
Numbers only, in µM.

Consider the reported Ki for these molecules:
| Molecule | Ki [µM] |
| --- | --- |
| Cc1nc(-c2cc3ccccc3oc2=O)ccc1C(=O)/C=C/c1ccc(F)cc1 [Compound 5b] | 3.4 |
| Cc1ccc(/C=C/C(=O)c2ccc(-c3cc4ccccc4oc3=O)nc2C)cc1 [Compound 5d] | 4.3 |
| Cc1nn(-c2ccccc2)cc1/C=C/C(=O)c1ccc(-c2cc3ccccc3oc2=O)nc1C [Compound 5o] | 19.4 |
| Cc1nc(-c2cc3ccccc3oc2=O)ccc1C(=O)/C=C/c1ccc(N2CCOCC2)cc1 [Compound 5g] | 12 |
| Cc1nc(-c2cc3ccccc3oc2=O)ccc1C(=O)/C=C/c1ccccc1 [Compound 5a] | 1.5 |

Give Ki for all molecules that follow.
1. Cc1nc(-c2cc3ccccc3oc2=O)ccc1C(=O)/C=C/c1ccc(N(C)C)cc1 [Compound 5f]
2. Cc1nc(-c2cc3ccccc3oc2=O)ccc1C(=O)/C=C/c1ccc2c(c1)OCO2 [Compound 5j]

[8.5, 5.3]
